- TARGET SYSTEM: HLA-A*26:01
- ASSAY REMARKS: IEDB peptide-MHC binding, purified MHC/direct/fluorescence; filed as Kd, often an IC50 or EC50 that approximates it; bounds were set here for any values at or beyond the usual limits of such assays
- DETAILS: source organism: Bacillus licheniformis
pKd: −log10 of the molar value.
ASSAY ENDPOINT: pKd

INSERT INTO assay_data (residue_string, target_system, result) VALUES
  ('VQIPEKKCF', 'HLA-A*26:01', '≤ 4.70');

----------
- TARGET SYSTEM: HLA-A*03:01
- ASSAY REMARKS: IEDB peptide-MHC binding, purified MHC/competitive/radioactivity; filed as Kd, often an IC50 or EC50 that approximates it; bounds were set here for any values at or beyond the usual limits of such assays
- DETAILS: source organism: Lymphocytic choriomeningitis virus (strain Armstrong)
pKd: −log10 of the molar value.
Measured pKd values are reported for all entries that follow.
ASSAY ENDPOINT: pKd

INSERT INTO assay_data (residue_string, censor_symbol, readout_number) VALUES
  ('DHVSTLLTWH', '≤', 4.65),
  ('SKFWYLEHAK', '=', 4.73);
